Tested on: C. tropicalis strain H5343
Test: Toxicity tests of substrates (growth by absorbance at 600 nm, streak plates)
Format: cell-based
Conditions: substrate concentration 0.063%, 48 h, 30° C., dilution in YPD 1:100
Lab note: anything with ABS 600.0 nm at or over 0.09 counts as y; the rest go in n.

C=C(C)[C@H]1CC=C(C)CC1 [R(+) limonene] ... y
C=CCCCCCCCCCC [C12 a-Olefin] ... y
CCCCCC#CCCCCC ... n
C/C=C/CCCCCC [trans-2-nonene] ... y
CCCCCCCCCC(CCCCCCC)C(=O)O (stereo not drawn) ... n
